# protocolDetails: NCI Yeast Anticancer Drug Screen. Data for the bub3 strain (AID 167)
# experimentalConditions: S. cerevisiae bub3 mutant strain, at 50.0 µM
Compounds without any hit were thinned out: in the full panel of roughly 79,000, 15% have a hit. Calls of active or inactive are those of the source. No stated cut-off is given here; in the data, active means growth inhibition above about 70%; inactive means the rest.
# valid calls are active, inactive; nothing else

compound	group
Nc1nnc(/C=C/c2ccccc2)o1	inactive
c1cc2c3c(c1)c1cc4c(cc1c[n+]3CC2)OCO4	active
COC1OC2COC(c3ccccc3)OC2C2OC12 (configuration not stated)	inactive
CCOc1ccc2ccccc2c1C(Cc1ccc(Cl)cc1)NCCO (configuration not stated)	active
c1cc2c3c(cccc3c1)-c1cnccc1-2	active
C[C@H](CCC(=O)O)[C@H]1CC[C@H]2[C@@H]3[C@H](O)C[C@@H]4C[C@H](O)CC[C@]4(C)[C@H]3CC[C@]12C	active
OC1CC2CCCC(C1)C2 (configuration not stated)	inactive
CC(=O)NC1CCC(C2CCCCC2)CC1C1CCCCC1 (configuration not stated)	active

Incoming: Per the assay record, what outcome was assigned to Cc1cc(NCCCCCCCNc2cc(C)nc3cc([N+](=O)[O-])ccc23)c2ccc([N+](=O)[O-])cc2n1 ?
Outgoing: active

Incoming: Entry Cc1c(C)c(CCl)c(C)c(C)c1CCl : call = ?
Outgoing: inactive

Incoming: Could you kindly confirm the outcome this assay logged for Nc1cc(F)c2c(c1)Cc1ccccc1-2 ?
Outgoing: active

Where these numbers come from: PubChem BioAssay (NCI)
